Just for reference, the supplement of paper PMC3334620 is where these values come from.

Molecular target: Upc2 (UniProt Q12151)
Sequence: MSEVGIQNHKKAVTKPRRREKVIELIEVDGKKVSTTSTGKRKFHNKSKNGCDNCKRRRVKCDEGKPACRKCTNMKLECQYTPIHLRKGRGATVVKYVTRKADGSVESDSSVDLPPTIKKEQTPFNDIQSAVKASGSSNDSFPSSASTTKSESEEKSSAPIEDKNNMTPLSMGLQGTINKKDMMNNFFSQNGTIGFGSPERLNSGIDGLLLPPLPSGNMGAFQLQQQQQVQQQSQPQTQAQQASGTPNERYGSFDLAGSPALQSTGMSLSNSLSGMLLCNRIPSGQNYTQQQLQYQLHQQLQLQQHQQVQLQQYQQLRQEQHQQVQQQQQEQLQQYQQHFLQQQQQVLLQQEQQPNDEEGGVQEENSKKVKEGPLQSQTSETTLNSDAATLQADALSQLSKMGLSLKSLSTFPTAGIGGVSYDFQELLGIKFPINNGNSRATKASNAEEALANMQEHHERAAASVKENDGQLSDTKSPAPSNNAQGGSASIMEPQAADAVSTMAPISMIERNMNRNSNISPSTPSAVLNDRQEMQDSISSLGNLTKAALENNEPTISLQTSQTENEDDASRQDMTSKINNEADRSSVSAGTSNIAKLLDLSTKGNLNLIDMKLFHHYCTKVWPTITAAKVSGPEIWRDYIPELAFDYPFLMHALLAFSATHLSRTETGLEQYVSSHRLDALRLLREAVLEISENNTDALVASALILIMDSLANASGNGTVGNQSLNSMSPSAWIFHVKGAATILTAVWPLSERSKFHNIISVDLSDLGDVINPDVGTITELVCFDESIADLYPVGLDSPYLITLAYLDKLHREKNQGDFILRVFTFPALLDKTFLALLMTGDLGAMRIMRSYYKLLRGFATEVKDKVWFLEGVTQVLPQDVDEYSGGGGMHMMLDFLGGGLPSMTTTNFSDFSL
Test: PBM E-score (8-mer binding enrichment) (E-score (-0.5 to 0.5)); higher = stronger / more preferred TF binding
Settings: protein concentration: 200 nM; construct: GST-full length
The full ranking holds about 33,000 sequences; the median of “E-score (-0.5 to 0.5)” is about -0.043, and the highest 2% start at about 0.37. This excerpt belongs to a sample that is enriched for the highest values.
Grouping key: PBM E-score. Bins: group 1 = under -0.03, group 2 = from -0.03 up to 0.3, group 3 = 0.3 and over

>>> class_assignment("CGTTACAA")
"group 2"
>>> class_assignment("AGGAGCCT")
"group 1"
>>> class_assignment("ACGAAACG")
"group 3"
>>> class_assignment("AAAATCCT")
"group 2"
>>> class_assignment("AATGTCGC")
"group 2"
>>> class_assignment("ATTGAACA")
"group 1"
>>> class_assignment("CACGTAGA")
"group 2"
>>> class_assignment("ACTGAACT")
"group 2"
>>> class_assignment("CCTTTACA")
"group 1"
>>> class_assignment("ATCGTAGA")
"group 3"
>>> class_assignment("AGTTACGG")
"group 2"
>>> class_assignment("AATTTACG")
"group 3"
>>> class_assignment("GATCGTAC")
"group 3"
>>> class_assignment("GATCGTCC")
"group 1"
>>> class_assignment("AGTAAAGC")
"group 2"
>>> class_assignment("CCTGAACC")
"group 1"
>>> class_assignment("GTACGACA")
"group 3"
>>> class_assignment("GTAGTAGA")
"group 1"
>>> class_assignment("AAGGTTAT")
"group 1"
>>> class_assignment("CTCGTAGC")
"group 3"
>>> class_assignment("AAAGCAGT")
"group 1"
>>> class_assignment("CATCACGG")
"group 2"
>>> class_assignment("CGACGACA")
"group 2"
>>> class_assignment("ACACGGTG")
"group 1"
>>> class_assignment("CGTAAAGC")
"group 3"
>>> class_assignment("GGCTGATA")
"group 1"
>>> class_assignment("ACCGTACA")
"group 3"
>>> class_assignment("ATACGGTA")
"group 3"
>>> class_assignment("GGTAAAGA")
"group 2"
>>> class_assignment("ATTTTACC")
"group 2"
>>> class_assignment("GGTTACTA")
"group 1"
>>> class_assignment("CGTAAAGA")
"group 3"
>>> class_assignment("ATACGGTG")
"group 3"
>>> class_assignment("AAGATCAT")
"group 2"
>>> class_assignment("GGGTACGA")
"group 3"
>>> class_assignment("AGTACCCA")
"group 1"
>>> class_assignment("CGGGCATC")
"group 2"
>>> class_assignment("ACTAGATG")
"group 1"
>>> class_assignment("CATACCCC")
"group 2"
>>> class_assignment("GGGTACCA")
"group 1"
>>> class_assignment("CGTACCCC")
"group 3"
>>> class_assignment("AGGTACGA")
"group 3"
>>> class_assignment("CGTTACGC")
"group 2"
>>> class_assignment("CACGATGG")
"group 2"
>>> class_assignment("GGGTACAA")
"group 2"
>>> class_assignment("CACGTAGC")
"group 1"
>>> class_assignment("GCACGACA")
"group 2"
>>> class_assignment("ACGAGCCT")
"group 3"
>>> class_assignment("ATTTTACG")
"group 3"
>>> class_assignment("ACGAGCCA")
"group 3"
>>> class_assignment("ACGAAACC")
"group 2"
>>> class_assignment("AAACGGTA")
"group 3"
>>> class_assignment("GTCGTAGA")
"group 3"
>>> class_assignment("CGTTACGA")
"group 3"
>>> class_assignment("AGACGGTG")
"group 1"
>>> class_assignment("GGTACCCA")
"group 1"
>>> class_assignment("GACGATGA")
"group 2"
>>> class_assignment("AACGATGG")
"group 3"
>>> class_assignment("TATCGTAA")
"group 3"
>>> class_assignment("CGTTGTTA")
"group 2"
>>> class_assignment("ACCGATGA")
"group 2"
>>> class_assignment("ACATAGTG")
"group 1"
>>> class_assignment("AAGCTCAC")
"group 1"
>>> class_assignment("ACTGAACA")
"group 2"
>>> class_assignment("AGGTACGC")
"group 2"
>>> class_assignment("CCGAAACG")
"group 3"
>>> class_assignment("CCGAGCCA")
"group 2"
>>> class_assignment("CGGTACCA")
"group 1"
>>> class_assignment("ATCATCTG")
"group 1"
>>> class_assignment("CAACTTCA")
"group 2"
>>> class_assignment("AGTAAAGA")
"group 1"
>>> class_assignment("CCACGACA")
"group 1"
>>> class_assignment("CTTAGATA")
"group 1"
>>> class_assignment("ATACGACA")
"group 3"
>>> class_assignment("ACTTTACT")
"group 1"
>>> class_assignment("AGGCGTGC")
"group 1"
>>> class_assignment("AATCGTAC")
"group 3"
>>> class_assignment("ACTTTACG")
"group 3"
>>> class_assignment("AAAGGAGC")
"group 1"
>>> class_assignment("ACTGAACG")
"group 3"
>>> class_assignment("CGATATCG")
"group 2"
>>> class_assignment("GGTTACGA")
"group 3"
>>> class_assignment("GATCGTGC")
"group 2"
>>> class_assignment("GGACTACA")
"group 1"
>>> class_assignment("AGTTACGA")
"group 3"
>>> class_assignment("GGTTACCA")
"group 2"
>>> class_assignment("CACTGAGA")
"group 2"
>>> class_assignment("AATCGTGC")
"group 2"
>>> class_assignment("GAGCACAA")
"group 1"
>>> class_assignment("GGACATTA")
"group 2"
>>> class_assignment("ACCTCAGT")
"group 1"

###

Biological target: Upc2 (UniProt Q12151)
Sequence: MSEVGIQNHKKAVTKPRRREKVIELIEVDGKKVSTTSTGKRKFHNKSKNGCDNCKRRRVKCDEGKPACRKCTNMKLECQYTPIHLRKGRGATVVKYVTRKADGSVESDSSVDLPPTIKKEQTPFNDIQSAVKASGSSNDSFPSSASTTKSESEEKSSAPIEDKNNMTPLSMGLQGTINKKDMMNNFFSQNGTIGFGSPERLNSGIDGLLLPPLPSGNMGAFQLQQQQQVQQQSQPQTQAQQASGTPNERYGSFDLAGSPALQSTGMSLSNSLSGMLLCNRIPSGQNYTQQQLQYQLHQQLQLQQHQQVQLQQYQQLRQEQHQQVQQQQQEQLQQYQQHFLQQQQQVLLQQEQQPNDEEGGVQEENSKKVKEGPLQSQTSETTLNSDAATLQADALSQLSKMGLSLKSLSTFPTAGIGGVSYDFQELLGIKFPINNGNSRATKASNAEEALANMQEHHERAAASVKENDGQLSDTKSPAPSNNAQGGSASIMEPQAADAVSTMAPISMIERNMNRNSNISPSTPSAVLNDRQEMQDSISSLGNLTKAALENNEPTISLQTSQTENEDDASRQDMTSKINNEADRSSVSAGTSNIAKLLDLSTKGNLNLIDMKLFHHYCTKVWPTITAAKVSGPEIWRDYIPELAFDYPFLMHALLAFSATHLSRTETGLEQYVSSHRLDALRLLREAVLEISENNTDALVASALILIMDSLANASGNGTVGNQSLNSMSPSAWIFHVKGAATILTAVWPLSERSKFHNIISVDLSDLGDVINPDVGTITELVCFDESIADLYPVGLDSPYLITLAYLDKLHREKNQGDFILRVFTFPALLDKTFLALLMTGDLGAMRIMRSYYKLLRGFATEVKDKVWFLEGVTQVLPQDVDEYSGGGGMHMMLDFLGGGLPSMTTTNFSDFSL
Assay: PBM E-score (8-mer binding enrichment) (E-score (-0.5 to 0.5)); higher = stronger / more preferred TF binding
Details: protein concentration: 200 nM; construct: GST-full length
In all, about 33,000 sequences were measured (“E-score (-0.5 to 0.5)”: median about -0.043, highest 2% from about 0.37 on). The list comes from a sample in which the highest values are over-represented; it also holds close analogues and randomly drawn sequences.
Let's look at some sequences and their measured PBM E-score.
endpoint: PBM E-score

>>> observed_result("AATATCTG")
-0.124
>>> observed_result("GTTAGCGA")
0.194
>>> observed_result("TATACGGA")
0.47
>>> observed_result("CCTTCGTC")
0.00619
>>> observed_result("CATACGCA")
0.313
>>> observed_result("GCATACCA")
0.00545
>>> observed_result("CTCTCCAA")
-0.0403
>>> observed_result("ACAGATTA")
-0.111
>>> observed_result("AGCCAACC")
0.0299
>>> observed_result("ACTTCGTC")
0.0529
>>> observed_result("CGGTCGTA")
0.442
>>> observed_result("GGGTCGGA")
0.0691
>>> observed_result("AGTTGGCA")
0.0278
>>> observed_result("GGGTCGAA")
0.0267
>>> observed_result("ATTTAACG")
0.387
>>> observed_result("GCGTAAAA")
0.302
>>> observed_result("GATACGCA")
0.276
>>> observed_result("TAATCTCA")
-0.058
>>> observed_result("AGGTCGTC")
0.0416
>>> observed_result("TATACGCA")
0.449
>>> observed_result("ACTACCAG")
-0.0238
>>> observed_result("TAATGCTA")
-0.11
>>> observed_result("ACAGAGCG")
-0.0821
>>> observed_result("ACTAAACC")
0.0385
>>> observed_result("CCTAAACG")
0.472
>>> observed_result("CGGTCGGA")
-0.0376
>>> observed_result("ATGGGAGA")
-0.251
>>> observed_result("GATACGGA")
0.278
>>> observed_result("CAGTGCTA")
-0.0362
>>> observed_result("CCTAAACC")
0.0842
>>> observed_result("GGATGGCA")
0.0444
>>> observed_result("CTCTCAAG")
-0.308
>>> observed_result("ATTAAACC")
-0.0396
>>> observed_result("AGTTTCAT")
0.0688
>>> observed_result("GCAGTGGA")
-0.123
>>> observed_result("ACTTATTC")
-0.0293
>>> observed_result("ACTAAACA")
-0.109
>>> observed_result("CATTAGCG")
0.197
>>> observed_result("ACTTCGTA")
0.429
>>> observed_result("AGCCCTTC")
-0.211
>>> observed_result("GGGTCGTA")
0.42
>>> observed_result("ATTAAACG")
0.461
>>> observed_result("AGGTCGTG")
0.0575
>>> observed_result("ACTAAACG")
0.463
>>> observed_result("GAGGTCAA")
-0.0747
>>> observed_result("CCTAAACA")
-0.063
